tested on: KM12 colon; test: NCI tumour cell line growth inhibition, 48 h
Please mark class 1 if the recorded TGI is equal to or greater than 30 µM, and class 0 if it falls below.

Before answering, review these 5 worked examples.
{"columns": ["COMPOUND", "ASSAY SYSTEM", "DISCRETE LABEL"],
 "data": [
  ["Cc1ccc(NC(=O)CC2SC(=Nc3ccc(Cl)cc3)NC2=O)cc1C (centres undefined)", "KM12 colon", "class 1"],
  ["O=C(/C=C/c1cccc(Br)c1)N1CCN(CCOC(c2ccccc2)c2ccccc2)CC1", "KM12 colon", "class 1"],
  ["CN(C)C1CN(C(=O)c2cc(-c3ccc4ncnc(N5CCc6cc(F)c(Cl)cc65)c4c3)cnc2N)C1", "KM12 colon", "class 1"],
  ["C[C@@H](c1ccccc1)N1CO[C@@]2(C#Cc3ccc4c(c3)OCO4)CCC[C@@H]12", "KM12 colon", "class 1"],
  ["Cn1c(=S)[nH]c(N)c(Cc2ccccc2)c1=O", "KM12 colon", "class 1"]
]}

In: Dear colleague, could you confirm whether `COc1ncc(-c2ccc3nccc(C#CCCCCC(=O)NO)c3c2)cc1NS(=O)(=O)c1ccc(F)cc1F` has TGI at or above 30 µM?
Out: class 0

* * *

test system: T-47D breast; test: NCI tumour cell line growth inhibition, 48 h
Numbered stars: 1 amine (or outer) side, 2 acyl side, 3 side chain; on linkers, the order of the positions; unused ones are H or OH. Bridge positions count the residues as written; N and C are the ends. Square brackets hold non-standard residues; d marks the D form. Peptide text beside a SMILES is read from it. I, II: the chains in the order shown. Actinocin(9to1) = Cc1c2oc3c(C)ccc(C(=O)[*:1])c3nc-2c(C(=O)[*:2])c(N)c1=O; aThr = C[C@H](O)[C@H](N)C(=O)O; NMeV = CN[C@H](C(=O)O)C(C)C; Sar = CNCC(=O)O
ENDPOINT NAME: TGI

As a guide, the following entries are already answered.
{"columns": ["MOLECULE", "ENDPOINT NAME", "RESULT"],
 "data": [
  ["CC#CC#C/C(=C/C=CC(=O)OC)SC", "TGI", "> 100 µM"],
  ["O=CC1OC(=O)c2cc(O)c(O)c(O)c2-c2c(cc(O)c(O)c2O)C(=O)OC1C1OC(=O)c2cc(O)c(O)c(O)c2-c2c(O)c(O)c3oc(=O)c4c(c(O)c(O)c5oc(=O)c2c3c54)-c2c(cc(O)c(O)c2O)C(=O)OCC1O (stereo not drawn)", "TGI", "> 100 µM"]
]}

The following molecules each have a reported value; give each one's TGI.
1. Cc1c2oc3c(C)ccc(C(=O)N[C@@H]4C(=O)N[C@H](C(C)C)C(=O)N5CCC[C@H]5C(=O)N(C)CC(=O)N(C)[C@@H](C(C)C)C(=O)O[C@H]4C)c3nc-2c(C(=O)N[C@@H]2C(=O)N[C@H](C(C)C)C(=O)N3CCC[C@H]3C(=O)N(C)CC(=O)N(C)[C@@H](C(C)C)C(=O)O[C@H]2C)c(N)c1=O (I: [aThr][dV]P[Sar][NMeV] / II: [aThr][dV]P[Sar][NMeV]; ester I:1-I:C, II:1-II:C; linker I:N-II:N via Actinocin(9to1))
2. CC1CC(=O)Nc2ccccc2N1C(=O)C1CC1 (stereo not drawn)
3. Cn1c(=O)cc(Nc2ccc(N)cc2)[nH]c1=O
4. NS(=O)(=O)c1ccc(NC(=O)c2ccc3nc4ccccc4c(Nc4ccc(S(N)(=O)=O)cc4)c3c2)cc1

Out:
1: 34.3 nM [middle of 4 runs]; 2: > 100 µM; 3: > 100 µM; 4: > 100 µM

The following molecules each have a reported value; give each one's TGI.
1. CN1CCc2c(sc3ncn(Nc4ccc(F)cc4)c(=N)c23)C1
2. COc1cc(N(CCCl)CCCl)ccc1/C=N\NC(=O)c1cccnc1

Out:
1: > 100 µM; 2: > 100 µM

* * *

Assign TGI to each entry below.
tested on: LOX IMVI melanoma; assay: NCI tumour cell line growth inhibition, 48 h

{"columns": ["COMPOUND", "RESULT"],
 "data": [
  ["CC(=O)Nc1ccc(C2=N/C(=C\\c3ccc(Cl)cc3)C(=O)O2)cc1", "35.6 µM"]
]}

The following compounds each have a reported value; give each one's TGI.
1. COc1cc(CC(=O)O)c([N+](=O)[O-])cc1OC
2. Cc1cccc(N=N/C(=N\NC(=O)c2cc(Cl)ccc2O)c2ccc(N(CCC#N)CCC#N)cc2C)c1
3. CCCCCCCCCCCCCCCC(=O)OC1C(O)C(O)C(O)C(O)C12CO2 (configuration not stated)
4. COc1ccc(Nc2cc(=O)[nH]c(=O)[nH]2)cc1
5. CC(N)C(C)c1ccccc1 (configuration not stated)

Out:
1: > 100 µM; 2: > 100 µM; 3: 53.2 µM; 4: > 100 µM; 5: > 100 µM

In: What value of TGI on LOX IMVI melanoma does `CN(C)NC1=NS(=O)(=O)c2cc3c(=O)n(C)[nH]c3cc2S1` have?
Out: > 10 µM

* * *

tested on: MOLT-4 leukemia; experiment: NCI tumour cell line growth inhibition, 48 h
ENDPOINT NAME: TGI

As a guide, the following entries are already answered.
{"columns": ["COMPOUND", "TGI"],
 "data": [
  ["COC(=O)c1cccc(NC(=O)c2ccc(NC3=C(Cl)C(=O)N(Cc4ccccc4)C3=O)cc2)c1", "56.5 µM"],
  ["COc1nc(NC2OC(CO)C(O)C(O)C2O)c(N)c(=O)[nH]1 (configuration not stated)", "> 100 µM"],
  ["Cn1c(=O)c(Oc2ccc(F)cc2F)cc2cnc(NCC(C)(C)O)nc21", "> 25 µM"]
]}

The following compounds each have a reported value; give each one's TGI.
1. CC1=CC[C@@H](C(C)(C)O)C[C@@H]1O
2. COc1c(B(O)O)cccc1-c1nc2c(F)cc3n[nH]c(C)c3c2c2c1CCCC2
3. O=C(CCCn1ccnc1[N+](=O)[O-])NCCn1cnc([N+](=O)[O-])n1
4. Cc1cc(C)c2c(c1)N(C)c1ncnc(-n3cnc4cc(C)ccc43)c1CC2C (configuration not stated)
5. CN1CCN(c2n[nH]c(=O)c3c2nnn3C2CCCCC2)CC1

Out:
1. > 5000 µM
2. > 50 µM
3. > 100 µM
4. 9.57 µM
5. > 100 µM

The following compounds each have a reported value; give each one's TGI.
1. COc1cc(C(=O)NN=C2c3ccccc3-c3ccccc32)cc(OC)c1OC
2. C=C(C)[C@H]1CC(=O)[C@@]2(C)C[C@H]3O[C@]3(C)CC/C=C(\C)CC[C@H]12
3. O=C(O)CCC1c2[nH]c3ccccc3c2CCN1Cc1ccccc1 (configuration not stated)
4. CC#CC#C/C=C1\C=CC2(OC=CC2O)O1 (configuration not stated)

Out:
> 100 µM
60.9 µM
> 100 µM
> 23.3 µM

The following compounds each have a reported value; give each one's TGI.
1. CC1CCc2c(sc3ncnc(N/N=C/c4ccc(Cl)cc4)c23)C1 (configuration not stated)
2. c1ccc2c(c1)-c1ccccc1C2NC1=NCCO1
3. C=C1CC[C@@H]2[C@](C)(COC(=O)CCC(=O)O)CCC[C@@]2(C)[C@@H]1CCC1=CC(=O)OC1
4. CC1(C)C(CC(=O)O)CCCC1CC(=O)O (configuration not stated)
5. COC(=O)C1=CCC2c3[nH]c4ccccc4c3CCN2C1 (configuration not stated)

Out:
57.3 µM
> 100 µM
> 100 µM
> 100 µM
> 354 µM

* * *

test system: MCF7 breast; experiment: NCI tumour cell line growth inhibition, 48 h; in the data active = GI50 below about 0.43 µM; inactive = the rest
Tick one outcome: active, inactive

In: Please let me know the test result on file for `O=C(CN1CCN(C(=O)c2ccco2)CC1)Nc1ccc(Cl)cc1C(=O)c1ccccc1Cl` .
Out: inactive

In: Please let me know the test result on file for `COC(=O)Nc1nc2ccc(C(=O)c3ccc(F)cc3)cc2[nH]1` .
Out: active

In: Please let me know the test result on file for `CCCCOC(=O)c1c(C)[nH]c(/C=C2\N=C(c3ccc[nH]3)C=C2OC)c1C` .
Out: active

In: Please let me know the test result on file for COc1cc(C2CC(c3cccc(Nc4ccnc5cc(Cl)ccc45)c3)=NN2c2ccccc2)cc(OC)c1OC (centres undefined) .
Out: inactive

* * *

Assign TGI to each entry below.
system: SK-MEL-28 melanoma; test: NCI tumour cell line growth inhibition, 48 h

{"columns": ["COMPOUND", "RESULT"],
 "data": [
  ["c1ccc2c(c1)-c1ccccc1C2NC1=NCCO1", "55.7 µM"],
  ["Nc1nc(N)c2c(n1)CCC(S(=O)(=O)c1ccc3ccccc3c1)C2 (configuration not stated)", "> 100 µM"],
  ["Cc1ncc(CBr)c(CBr)c1O", "> 100 µM"],
  ["O[C@@]12Cc3c([nH]c4ccccc34)[C@@H]3Oc4c(-c5ccccc5)ccc5c4[C@@]31CCN(CC1CC1)[C@@H]2C5", "3.24 µM"],
  ["O=C(CCCn1ccnc1[N+](=O)[O-])NCCn1cnc([N+](=O)[O-])n1", "> 100 µM"]
]}

The following compounds each have a reported value; give each one's TGI.
1. NC(=O)c1csc(-c2ccc(CO)o2)n1
2. CCOC(=O)c1cc([N+](=O)[O-])c(Sc2ncnc3nc[nH]c23)c([N+](=O)[O-])c1
3. O=C(OCC(OC(=O)c1ccccc1)C1CC(C2(O)CCCCC2)C(=O)O1)c1ccccc1 (configuration not stated)
4. CCOc1cc2c(cc1O)C(=O)C[C@@H]1[C@@H]2CC[C@]2(C)[C@@H](O)CC[C@@H]12
5. O=C(CC(=O)N1N=C(N(c2ccccc2)c2ccccc2)CC1c1ccccc1)Nc1cccc(Cl)c1 (configuration not stated)
6. CCCCCCCCCCCCc1ccsc1-c1ccc(-c2ccc(-c3sccc3CCCCCCCCCCCC)s2)s1
7. CC1(C)[C@H]2Cc3cc4nc5ccccn5c4cc3[C@@H]1C2
8. Cc1cc(C)c(/C=N/NS(=O)(=O)c2ccccc2)c(C)c1

Out:
> 100 µM
29.2 µM
> 25 µM
> 73.5 µM
> 100 µM
> 100 µM
36.3 µM
> 100 µM

Values compiled from PubChem BioAssay (NCI).
